- assay_overview: Metabolic stability in 50% human plasma assessed as half life at pH 7.4 by RP-HPLC
experimental_readout: half-life (min)

Q) # return recorded half-life for input CC(=O)Oc1ccccc1C(=O)O[C@H]1CO[C@H]2[C@@H]1OC[C@H]2OC(=O)c1ccccc1CO[N+](=O)[O-]
A) 3.2

Q) Input CC(=O)Oc1ccccc1C(=O)O[C@H]1CO[C@H]2[C@@H]1OC[C@H]2OC(=O)c1ccc(C#N)cc1 , output reported half-life.
A) 4.08

Q) Item CC(=O)Oc1ccccc1C(=O)O[C@H]1CO[C@H]2[C@@H]1OC[C@H]2O : provide half-life
A) 1.1

Q) Check the records and state half-life for CC(=O)Oc1ccccc1C(=O)O[C@H]1CO[C@H]2[C@@H]1OC[C@H]2OC(=O)c1cccnc1
A) 0.37

Q) Give recorded half-life. CC(=O)Oc1ccccc1C(=O)O[C@H]1CO[C@H]2[C@@H]1OC[C@H]2OC(=O)c1ccccc1OC(=O)c1ccccc1
A) 4.33

[1] CC(=O)Nc1cccc(C(=O)O[C@@H]2CO[C@H]3[C@@H]2OC[C@@H]3OC(=O)c2ccccc2OC(C)=O)c1
[2] CC(=O)Oc1ccccc1C(=O)O[C@H]1CO[C@H]2[C@@H]1OC[C@H]2OC(=O)c1ccccc1O
Q) Which one would you say has the larger half-life value: 1 , or 2 ? Provide the label of your selected option as the answer.
A) 1
(1: 3.5 min, 2: 1.14 min)

[P] CC(=O)Oc1ccccc1C(=O)O[C@H]1CO[C@H]2[C@@H]1OC[C@H]2OC(=O)c1ccc(CO[N+](=O)[O-])cc1
[Q] CCC(=O)O[C@@H]1CO[C@H]2[C@@H]1OC[C@@H]2OC(=O)c1ccccc1OC(C)=O
Q) Lab notebook, comparison: P versus Q , higher half-life goes to which? State your choice using its label.
A) P
(P: 2.4 min, Q: 0.66 min)

[P] CC(=O)Oc1ccccc1C(=O)O[C@H]1CO[C@H]2[C@@H]1OC[C@H]2OC(=O)CO[N+](=O)[O-]
[Q] CC(=O)Oc1ccccc1C(=O)O[C@H]1CO[C@H]2[C@@H]1OC[C@H]2OC(=O)c1ccnn1C
[R] CC(=O)Oc1ccccc1C(=O)O[C@H]1CO[C@H]2[C@@H]1OC[C@H]2OC(=O)CCO[N+](=O)[O-]
Q) Hi! Can you put these in order of half-life, lowest number first? Please respond by ranking the labels in the order requested.
A) P, R, Q

###

- assay_overview: Metabolic stability in 50% human plasma assessed as half life at pH 7.4 by RP-HPLC
experimental_readout: half-life (min)

Q) Provide one value: measured half-life of CC(=O)Oc1ccccc1C(=O)O[C@H]1CO[C@H]2[C@@H]1OC[C@H]2OC(=O)c1cccc(O)c1
A) 0.9

[P] CC(=O)Oc1ccccc1C(=O)O[C@H]1CO[C@H]2[C@@H]1OC[C@H]2OC(=O)c1cccc(C)c1
[Q] CC(=O)Oc1ccccc1C(=O)O[C@H]1CO[C@H]2[C@@H]1OC[C@H]2OC(=O)c1cnccc1Cl
[R] COc1cccc(C(=O)O[C@@H]2CO[C@H]3[C@@H]2OC[C@@H]3OC(=O)c2ccccc2OC(C)=O)c1
Q) # rank by half-life, ascending (min first) Answer format: the labels, ordered as requested.
A) R, P, Q

###

- assay_overview: Metabolic stability in 50% human plasma assessed as half life at pH 7.4 by RP-HPLC
experimental_readout: half-life (min)

A selection of reference data follows.
Q) For the compound CCOc1cc(OCC)cc(C(=O)O[C@@H]2CO[C@H]3[C@@H]2OC[C@@H]3OC(=O)c2ccccc2OC(C)=O)c1 , give its reported half-life.
A) 1.7

Q) Identify half-life associated with the compound CC(=O)Oc1ccccc1C(=O)O[C@H]1CO[C@H]2[C@@H]1OC[C@H]2OC(=O)c1ccc([N+](=O)[O-])cc1
A) 1.36

Q) Specify measured half-life for CC(=O)Oc1ccccc1C(=O)O[C@H]1CO[C@H]2[C@@H]1OC[C@H]2OC(=O)c1cc(C)nc(Cl)c1 .
A) 1.16

[a] CC(=O)Oc1ccccc1C(=O)O[C@H]1CO[C@H]2[C@@H]1OC[C@H]2OC(=O)C1CC1
[b] CC(=O)Oc1ccccc1C(=O)O[C@H]1CO[C@H]2[C@@H]1OC[C@H]2OC(C)=O
[c] CC(=O)Oc1ccccc1C(=O)O[C@H]1CO[C@H]2[C@@H]1OC[C@H]2OC(=O)c1snnc1C
Q) Reorder the items by half-life, least to greatest. Submit the labels in the order that the ranking request calls for.
A) c, b, a

###

- assay_overview: Metabolic stability in 10% human plasma assessed as half life at pH 7.4 by RP-HPLC
experimental_readout: half-life (min)

The examples below pair each entry with its known result.
Q) Consider the compound CC(=O)Oc1ccccc1C(=O)O[C@@H]1CO[C@H]2[C@@H]1OC[C@@H]2O[N+](=O)[O-] (racemic) and give its recorded half-life.
A) 1.3

Q) Give reported half-life value for CC(=O)Oc1ccccc1C(=O)O[C@H]1CO[C@H]2[C@@H]1OC[C@H]2OC(=O)c1ccc(CO[N+](=O)[O-])cc1
A) 6

Q) Input CC(=O)Oc1ccccc1C(=O)O[C@H]1CO[C@H]2[C@@H]1OC[C@H]2OC(=O)c1cc(C)nc(Cl)c1 , output reported half-life.
A) 1.16

Q) Consider the compound CC(=O)Oc1ccccc1C(=O)O[C@H]1CO[C@H]2[C@@H]1OC[C@H]2OC(=O)c1ccnn1C and give its recorded half-life.
A) 5.78

[P] CC(=O)Oc1ccccc1C(=O)O[C@H]1CO[C@H]2[C@@H]1OC[C@H]2OC(=O)c1ccccc1CO[N+](=O)[O-]
[Q] CC(=O)Oc1ccccc1C(=O)O[C@H]1CO[C@H]2[C@@H]1OC[C@H]2OC(=O)c1ccc(C)cc1
Q) Lowest half-life? choose P or Q Please respond with the label that marks your chosen entry.
A) P

###

- Tested on: Plasma
- assay_overview: Metabolic stability in 10% human plasma assessed as aspirin release at pH 7.4 by RP-HPLC; note: time not given here
- Assay type: ADME, cell-free
experimental_readout: Activity (%)

[1] CC(=O)Oc1ccccc1C(=O)O[C@H]1CO[C@H]2[C@@H]1OC[C@H]2OC(=O)c1ccnn1C
[2] COc1ccc(C(=O)O[C@@H]2CO[C@H]3[C@@H]2OC[C@@H]3OC(=O)c2ccccc2OC(C)=O)cc1
Q) I'm curious whether 1 or 2 has the smaller Activity number. Which is it? Select an item and report its label.
A) 2
(2: 2.6%, 1: 7%)

###

- assay_overview: Metabolic stability in 10% human plasma assessed as half life at pH 7.4 by RP-HPLC
experimental_readout: half-life (min)

Please review the following examples before continuing.
Q) Note down half-life recorded for CC(=O)Oc1ccccc1C(=O)O[C@H]1CO[C@H]2[C@@H]1OC[C@H]2OC(=O)c1cccc(C)c1
A) 9.9

Q) Specify half-life for COc1cccc(C(=O)O[C@@H]2CO[C@H]3[C@@H]2OC[C@@H]3OC(=O)c2ccccc2OC(C)=O)c1 and stop.
A) 3.15

Q) Using the record for CC(=O)Oc1ccccc1C(=O)O[C@H]1CO[C@H]2[C@@H]1OC[C@H]2OC(=O)C1CC1 , state its measured half-life.
A) 1.93

[A] CC(=O)Oc1ccccc1C(=O)O[C@H]1CO[C@H]2[C@@H]1OC[C@H]2OC(=O)c1ccc(C#N)cc1
[B] CC(=O)Oc1ccccc1C(=O)O[C@H]1CO[C@H]2[C@@H]1OC[C@H]2OC(=O)c1ccc(O)cc1
Q) Among A and B , whose measured half-life is the smaller figure? Lab log: write the label of the selected item as the result.
A) B

[1] CC(=O)Oc1ccccc1C(=O)O[C@H]1CO[C@H]2[C@@H]1OC[C@H]2OC(=O)c1cccnc1
[2] CC(=O)Oc1ccccc1C(=O)O[C@H]1CO[C@H]2[C@@H]1OC[C@H]2OC(=O)c1ccc([N+](=O)[O-])cc1
Q) Identify the item whose half-life is the smaller number: 1 or 2 State your choice using its label.
A) 1

###

- Test system: Plasma
- assay_overview: Metabolic stability in 10% human plasma assessed as aspirin release at pH 7.4 by RP-HPLC; note: time not given here
- Assay type: ADME, cell-free
experimental_readout: Activity (%)

Q) Please report the measured Activity for CC(=O)Oc1ccccc1C(=O)O[C@H]1CO[C@H]2[C@@H]1OC[C@H]2OC(=O)c1ccc(C#N)cc1
A) 19

Q) For the compound CC(=O)Oc1ccccc1C(=O)O[C@H]1CO[C@H]2[C@@H]1OC[C@H]2OC(C)=O , give its measured Activity value.
A) 1.2

Q) Given CC(=O)Oc1ccccc1C(=O)O[C@H]1CO[C@H]2[C@@H]1OC[C@H]2OC(=O)C1CC1 , respond with its Activity.
A) 2

Q) Read the entry CC(=O)Oc1ccccc1C(=O)O[C@H]1CO[C@H]2[C@@H]1OC[C@H]2OC(=O)c1ccccc1OC(=O)c1ccccc1 and write its reported Activity.
A) 28

Q) Tell me Activity reported for CC(=O)Oc1ccccc1C(=O)O[C@H]1CO[C@H]2[C@@H]1OC[C@H]2OC(=O)c1ccccc1CO[N+](=O)[O-]
A) 32

[1] CCC(=O)O[C@@H]1CO[C@H]2[C@@H]1OC[C@@H]2OC(=O)c1ccccc1OC(C)=O
[2] CC(=O)Oc1ccccc1C(=O)O[C@H]1CO[C@H]2[C@@H]1OC[C@H]2OC(=O)c1ccccc1
Q) Please tell me which of the two, 1 or 2 , has the higher reported Activity value. Mark your answer with the label of the selected entry.
A) 2

[I] COc1cccc(C(=O)O[C@@H]2CO[C@H]3[C@@H]2OC[C@@H]3OC(=O)c2ccccc2OC(C)=O)c1
[II] CC(=O)Oc1ccccc1C(=O)O[C@H]1CO[C@H]2[C@@H]1OC[C@H]2OC(=O)c1ccc([N+](=O)[O-])cc1
Q) Between the entries labelled I and II , which has a larger Activity value on record? Let me know the label of the one you choose.
A) I

[a] CC(=O)Oc1ccccc1C(=O)O[C@H]1CO[C@H]2[C@@H]1OC[C@H]2OC(=O)c1cccc(O)c1
[b] CC(=O)Oc1ccccc1C(=O)O[C@H]1CO[C@H]2[C@@H]1OC[C@H]2OC(=O)c1ccccc1O
[c] CC(=O)Oc1ccccc1C(=O)O[C@H]1CO[C@H]2[C@@H]1OC[C@H]2OC(=O)c1ccncc1
Q) # ascending order, key=Activity In your reply, arrange the labels in the requested order.
A) c, a, b

[P] CC(=O)Oc1ccccc1C(=O)O[C@H]1CO[C@H]2[C@@H]1OC[C@H]2OC(=O)c1cccnc1
[Q] CC(=O)Oc1ccccc1C(=O)O[C@H]1CO[C@H]2[C@@H]1OC[C@H]2OC(=O)c1cnoc1C
Q) Compare P and Q and name the one whose reported Activity is smaller. Write down the label of the entry you select.
A) Q
(Q: 18%, P: 41%)
